Collected IC50 values appear next to each entry.
SYSTEM_UNDER_TEST: Porcine Pancreas Lipase (PPL) (Sus scrofa)
Sequence (P00591 1-450): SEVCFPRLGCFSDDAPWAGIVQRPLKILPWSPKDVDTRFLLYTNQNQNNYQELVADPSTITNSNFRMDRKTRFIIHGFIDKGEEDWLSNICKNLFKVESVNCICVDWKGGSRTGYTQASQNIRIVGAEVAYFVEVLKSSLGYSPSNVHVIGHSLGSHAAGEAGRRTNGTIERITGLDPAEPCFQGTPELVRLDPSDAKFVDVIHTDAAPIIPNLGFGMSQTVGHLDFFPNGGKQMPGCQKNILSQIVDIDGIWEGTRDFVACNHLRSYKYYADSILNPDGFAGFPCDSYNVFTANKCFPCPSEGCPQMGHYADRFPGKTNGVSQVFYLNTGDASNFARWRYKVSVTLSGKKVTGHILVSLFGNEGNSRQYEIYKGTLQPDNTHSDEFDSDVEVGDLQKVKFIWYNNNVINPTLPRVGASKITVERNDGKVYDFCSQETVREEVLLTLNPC
Hey, just the number and the unit after it is fine.

# MOLECULE, DATA_VALUE
data = [
    ("Cn1c(=O)c2c(ncn2C)n(C)c1=O [Compound 2, caffeine]", "80.3 µM"),
]

# input for lookup
If you can, please state the reported IC50 value of O=C(/C=C/c1ccc(O)c(O)c1)O[C@@H]1C[C@](O)(C(=O)O)C[C@@H](O)[C@H]1O [Compound 3, Chlorogenic acid] .
33.6 µM

Values from paper PMC8350192
